Tested on: maize
Test: Test on phytotoxicity to maize sown at a shallow sowing depth (soil treatment, pot test)
Assay type: in vivo
Settings: maize sown at 1 cm depth; 40 g/ha; 17 days after application
Experimental: Cylindrical pots having an inner diameter of about 11 cm and a depth of 10 cm were charged with sterilized upland soil. In each pot, three seeds of maize were separately seeded at a sowing depth of 1 cm. […] Seventeen days after the application, the fresh weight of aerial parts of each plant was determined and then compared with those of untreated plants.
Measured Fresh weight ratio with respect to untreated plants, listed per entry for reference.
MEASURED PARAMETER: Fresh weight ratio with respect to untreated plants (%)

1) CC1COc2ccccc2N1C(=O)C(Cl)Cl (centres unmarked) [Compound (E)] = 100
2) O=C(C(Cl)Cl)N1CCOC12CCCCC2 = 100
3) CCS(=O)(=O)Nc1cc(-n2c(=O)cc(C(F)(F)F)n(C)c2=O)c(F)cc1Cl = 70
4) CCS(=O)(=O)N(C(=O)C(C)(C)C)c1cc(-n2c(=O)cc(C(F)(F)F)n(C)c2=O)c(F)cc1C#N = 84
5) Cn1c(C(F)(F)F)cc(=O)n(-c2cc(NS(C)(=O)=O)c(C#N)cc2F)c1=O = 90
6) CC1(C)CN2C(=O)CCC2(C)N(C(=O)C(Cl)Cl)C1 (centres unmarked) = 100
7) CC1(C)OC(c2ccco2)CN1C(=O)C(Cl)Cl (centres unmarked) = 100
8) CCS(=O)(=O)N(C(=O)c1ccc(OC)cc1)c1cc(-n2c(=O)cc(C(F)(F)F)n(C)c2=O)c(F)cc1Cl = 73

meta.source: patent US6562756B1
